Tested on: rabbit blood
experiment: Recovery survival rate of blood after cryopreservation in liquid nitrogen, hemolysis by microplate reader
Assay type: cell-based
condition details: effective ingredient 6 mass % in PBS
Description: […]
Entries and their measured Recovery cell survival rate follow.
# number only, unit % dropped from output

>  <molecule>
C[N+](C)(C)CC(=O)[O-] [Betaine, trimethylammonium acetate]

>  <assay target>
rabbit blood

>  <readout type>
Recovery cell survival rate

>  <reading>
85.4

$$$$
>  <molecule>
C[N+](C)(C)C[C@H](O)CC(=O)[O-]

>  <assay target>
rabbit blood

>  <readout type>
Recovery cell survival rate

>  <reading>
84.3

$$$$
>  <molecule>
C=C(C)C(=O)OCCOP(=O)([O-])OCC[N+](C)(C)C

>  <assay target>
rabbit blood

>  <readout type>
Recovery cell survival rate

>  <reading>
73.9

$$$$

# molecule C=CC(=O)NCCC[N+](C)(C)CCC(=O)[O-] [Carboxybetaine (meth)acrylamide] ; its Recovery cell survival rate = 65.1

For reference, reported Recovery cell survival rate for C=C(C)C(=O)OCC[N+](C)(C)CCCS(=O)(=O)[O-] stands at 73.6
